Kindly supply the reported pIC50 values for the records listed here.
# target.of.assay: 5-HT1A receptor (Homo sapiens, UniProt P08908)
# Construct: EGFP; expressed in transfected cells
# Sequence (P08908 whole entry): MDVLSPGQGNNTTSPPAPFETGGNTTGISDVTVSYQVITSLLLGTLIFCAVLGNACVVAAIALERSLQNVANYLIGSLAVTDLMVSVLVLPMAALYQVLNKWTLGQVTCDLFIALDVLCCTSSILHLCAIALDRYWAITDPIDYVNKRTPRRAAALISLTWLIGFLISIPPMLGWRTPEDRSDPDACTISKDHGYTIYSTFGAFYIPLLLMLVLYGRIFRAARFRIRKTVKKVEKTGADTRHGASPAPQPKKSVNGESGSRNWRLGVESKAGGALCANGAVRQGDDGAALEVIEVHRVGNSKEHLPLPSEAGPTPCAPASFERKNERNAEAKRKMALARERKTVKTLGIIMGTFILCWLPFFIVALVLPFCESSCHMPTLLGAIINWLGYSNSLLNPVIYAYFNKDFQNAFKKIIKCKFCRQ
# test.details: ERK1/2 phosphorylation (HTRF) in HEK293 cells that overexpress the 5-HT1AR gene
# Type: cell-based
For clarity, pIC50 is expressed as the negative log10 of concentration in mol/L.

Find the recorded pIC50 belonging to COCCCC/C(=N\OCCNC(C)=O)c1ccc(C(F)(F)F)cc1 [N-Ac-Fluvoxamine, reference compound] and report it.
4.95

Input Cl.O=[N+]([O-])c1ccc2nc(N3CCN(CC4CCCCC4)CC3)ccc2c1
6.11

Input CCCCCCCCN1CCN(c2ccc3cc([N+](=O)[O-])ccc3n2)CC1.Cl
5.14

Input CCCCCCCCCCCN1CCN(c2ccc3cc([N+](=O)[O-])ccc3n2)CC1.Cl
6.05

Input CCCCCCCCCN1CCN(c2ccc3cc([N+](=O)[O-])ccc3n2)CC1
5.89

Input Cl.O=[N+]([O-])c1ccc2nc(N3CCN(Cc4ccc(F)cc4)CC3)ccc2c1
4.75
